meta.source: ChEMBL document CHEMBL5346924

Molecular target: Dual specificity mitogen-activated protein kinase kinase 1 (Homo sapiens)
Sequence (Q02750 whole entry): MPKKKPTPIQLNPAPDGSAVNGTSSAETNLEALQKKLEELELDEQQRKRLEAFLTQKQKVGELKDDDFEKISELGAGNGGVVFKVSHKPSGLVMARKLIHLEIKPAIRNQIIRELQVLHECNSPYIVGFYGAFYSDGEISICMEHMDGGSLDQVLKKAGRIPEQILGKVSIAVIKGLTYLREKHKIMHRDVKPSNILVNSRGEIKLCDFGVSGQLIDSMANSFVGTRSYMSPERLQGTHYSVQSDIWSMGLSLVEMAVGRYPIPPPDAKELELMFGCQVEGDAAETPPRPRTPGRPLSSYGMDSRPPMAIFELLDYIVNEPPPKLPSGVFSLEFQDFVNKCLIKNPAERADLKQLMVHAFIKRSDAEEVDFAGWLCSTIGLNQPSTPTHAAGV
Test: Inhibition of MEK1 (unknown origin) incubated for 1 hrs in the presence of ATP by FRET-based Z'-Lyte assay
The following compounds are listed with their measured IC50 values.

compound	IC50
COc1cc(C(C)O/C(=N\OC[C@H](O)CO)c2ccc(F)c(F)c2Nc2ccc(I)cc2F)c([N+](=O)[O-])cc1OC (some centres not stated)	> 30 µM

// query Bench note: what IC50 did `CCN(CC)c1ccc2c(CO/C(=N\OC[C@H](O)CO)c3ccc(F)c(F)c3Nc3ccc(I)cc3F)cc(=O)oc2c1` show?
// result > 30 µM

###

Experiment: Metabolic stability in human liver microsomes assessed as half-life in the presence of NADPH regenerating system
Format: ADME, Microsome
quantity: half-life (min)
Numeric only. Scale: min

// query Can you look up the measured half-life of COc1cc(C(C)O/C(=N\OC[C@H](O)CO)c2ccc(F)c(F)c2Nc2ccc(I)cc2F)c([N+](=O)[O-])cc1OC (stereo partly specified) for me?
// result 24.2
